Where do the numbers come from? From PubChem BioAssay (NCI).

Test system: DMS 114 small cell lung
Test: NCI tumour cell line growth inhibition, 48 h
valueType: TGI

Cc1nc2c(o1)C(=Nc1ccccc1)c1ccccc1C2=O: 8.57 µM
CCOc1ccc2c(c1)[n+]([O-])c(-c1ccc(Br)cc1)c(N)[n+]2[O-]: > 100 µM
O=C(/C=C/c1ccco1)c1ccc(NCc2nc3ccccc3[nH]2)cc1: 26 µM
O=C1C2=C(c3ccccc31)C(c1ccccc1)N1C(=O)CSC1=N2 (stereo unspecified): > 100 µM
O=C1C=CC(=C(c2ccc(O)cc2)c2ccc(O)cc2)C=C1: 7.54 µM
O=[N+]([O-])c1ccc(C2CC(c3ccccc3Cl)=Nc3ccccc3S2=O)cc1 (stereo unspecified): 4.36 µM

Tell me the measured TGI of O=c1cc(-c2c[nH]c3ccccc23)[nH]c2cc3c(cc12)OCO3 , please.
> 100 µM

Tell me the measured TGI of O=C(NCCO)c1ccc([N+](=O)[O-])cc1 , please.
> 100 µM

Tell me the measured TGI of ON(Cc1ccccc1)C(=S)c1ccccc1 , please.
9.55 µM

Tell me the measured TGI of C[N+](C)(C)CC1CCC/C1=N/O (stereo unspecified) , please.
39 µM

Tell me the measured TGI of COC(=O)/C(=N/Nc1cccc(Cl)c1)C(C(=O)C(=O)Nc1cccc(Cl)c1C)c1nc2ccccc2nc1C (stereo unspecified) , please.
> 100 µM
